# Tested on: rodent lifetime carcinogenesis bioassay, tumor incidence TD50
# experiment_notes: carcinogenic potency in animals, long-term in vivo studies, CPDB compilation (AID 1745844)
# details: rat; strain Sprague-Dawley; females; by gavage; site: any site (literature study); lesion: several types; types named in the paper; dosed 52 weeks; study length 85 weeks
The source made the active and inactive calls. How the calls were made is not given here.
Some compounds, each annotated with its measured TD50.

IN: # query: TD50 | item CC(C)CCC[C@@H](C)[C@H]1CC[C@H]2[C@@H]3CC=C4C[C@@H](OC(=O)Cc5ccc(N(CCCl)CCCl)cc5)CC[C@]4(C)[C@H]3CC[C@]12C | system: rodent lifetime carcinogenesis bioassay, tumor incidence TD50
OUT: 0.271 mg/kg/day

IN: Could you share what TD50 was measured for C[C@]12CC[C@@H]3c4ccc(OC(=O)Cc5ccc(N(CCCl)CCCl)cc5)cc4CC[C@H]3[C@@H]1CC[C@@H]2OC(=O)Cc1ccc(N(CCCl)CCCl)cc1 , tested on rodent lifetime carcinogenesis bioassay, tumor incidence TD50?
OUT: 0.189 mg/kg/day (inactive)
